# Tested on: Escherichia coli
# ASSAY_EXPLANATION: Antibacterial activity against Escherichia coli ATCC 25922 incubated for 16 to 18 hrs CLSI based by microbroth dilution assay
# Assay type: functional
# SETUP_CONDITIONS: time 16-18 hrs
REPORTED_METRIC: MIC

Entry CCNC(=O)C[N+](C)(C)CCCn1c(-c2ccc(N(C)C)cc2)nc2c3ccccc3c3ccccc3c21.[Br-] : reported MIC = ?
> 128 µg/mL

Entry CN(C)c1ccc(-c2nc3c4ccccc4c4ccccc4c3n2CCCCBr)cc1 : reported MIC = ?
> 64 µg/mL

Entry CN(C)c1ccc(-c2nc3c4ccccc4c4ccccc4c3n2CCCC[N+](C)(C)CC(=O)N2CCSCC2)cc1.[Br-] : reported MIC = ?
> 128 µg/mL

Entry CN(C)c1ccc(-c2nc3c4ccccc4c4ccccc4c3n2CCCCC[N+](C)(C)CC(=O)N2CCSCC2)cc1.[Br-] : reported MIC = ?
> 128 µg/mL

---

# ASSAY_EXPLANATION: Selectivity index, ratio of HC50 for sheep erythrocytes to MIC for Staphylococcus aureus ATCC 29213
# Format: toxicity
# SETUP_CONDITIONS: read-out: Selectivity Index
Record form. Attribute: selectivity ratio. Fill in for each entry.

Entry CC(C)N(C(=O)C[N+](C)(C)CCCCn1c(-c2ccc(N(C)C)cc2)nc2c3ccccc3c3ccccc3c21)C(C)C.[Br-] : reported selectivity ratio = ?
> 80

Entry CCCCCNC(=O)C[N+](C)(C)CCCn1c(-c2ccc(N(C)C)cc2)nc2c3ccccc3c3ccccc3c21.[Br-] : reported selectivity ratio = ?
> 80

Entry CCN(CC)C(=O)C[N+](C)(C)CCCn1c(-c2ccc(N(C)C)cc2)nc2c3ccccc3c3ccccc3c21.[Br-] : reported selectivity ratio = ?
> 10

Entry CN(C)c1ccc(-c2nc3c4ccccc4c4ccccc4c3n2CCCC[N+](C)(C)CC(=O)N2CCSCC2)cc1.[Br-] : reported selectivity ratio = ?
> 40

Entry CC(C)CN(CC(C)C)C(=O)C[N+](C)(C)CCCCn1c(-c2ccc(N(C)C)cc2)nc2c3ccccc3c3ccccc3c21.[Br-] : reported selectivity ratio = ?
> 79.1

Entry CCCN(CCC)C(=O)C[N+](C)(C)CCCn1c(-c2ccc(N(C)C)cc2)nc2c3ccccc3c3ccccc3c21.[Br-] : reported selectivity ratio = ?
> 20

Entry CN(C)c1ccc(-c2nc3c4ccccc4c4ccccc4c3n2CCCCC[N+](C)(C)CC(=O)N2CCSCC2)cc1.[Br-] : reported selectivity ratio = ?
> 160

Entry CCNC(=O)C[N+](C)(C)CCCn1c(-c2ccc(N(C)C)cc2)nc2c3ccccc3c3ccccc3c21.[Br-] : reported selectivity ratio = ?
> 10

Entry CCNC(=O)C[N+](C)(C)CCCCn1c(-c2ccc(N(C)C)cc2)nc2c3ccccc3c3ccccc3c21.[Br-] : reported selectivity ratio = ?
> 40

Entry CCCCCCNC(=O)C[N+](C)(C)CCCn1c(-c2ccc(N(C)C)cc2)nc2c3ccccc3c3ccccc3c21.[Br-] : reported selectivity ratio = ?
> 10

Entry CCN(CC)C(=O)C[N+](C)(C)CCCCn1c(-c2ccc(N(C)C)cc2)nc2c3ccccc3c3ccccc3c21.[Br-] : reported selectivity ratio = ?
> 640

Entry CCCCN(CCCC)C(=O)C[N+](C)(C)CCCn1c(-c2ccc(N(C)C)cc2)nc2c3ccccc3c3ccccc3c21.[Br-] : reported selectivity ratio = ?
> 80

Entry CC(C)N(C(=O)C[N+](C)(C)CCCCCn1c(-c2ccc(N(C)C)cc2)nc2c3ccccc3c3ccccc3c21)C(C)C.[Br-] : reported selectivity ratio = ?
167

Entry CCNC(=O)C[N+](C)(C)CCCCCn1c(-c2ccc(N(C)C)cc2)nc2c3ccccc3c3ccccc3c21.[Br-] : reported selectivity ratio = ?
> 40

Entry CCCCCNC(=O)C[N+](C)(C)CCCCCn1c(-c2ccc(N(C)C)cc2)nc2c3ccccc3c3ccccc3c21.[Br-] : reported selectivity ratio = ?
286

Entry CCCNC(=O)C[N+](C)(C)CCCCn1c(-c2ccc(N(C)C)cc2)nc2c3ccccc3c3ccccc3c21.[Br-] : reported selectivity ratio = ?
36.3

Entry CCCN(CCC)C(=O)C[N+](C)(C)CCCCn1c(-c2ccc(N(C)C)cc2)nc2c3ccccc3c3ccccc3c21.[Br-] : reported selectivity ratio = ?
53.3

Entry CN(C)c1ccc(-c2nc3c4ccccc4c4ccccc4c3n2CCC[N+](C)(C)CC(=O)N2CCSCC2)cc1.[Br-] : reported selectivity ratio = ?
5.6

Entry CCCNC(=O)C[N+](C)(C)CCCn1c(-c2ccc(N(C)C)cc2)nc2c3ccccc3c3ccccc3c21.[Br-] : reported selectivity ratio = ?
> 20

Entry O=C1C(=O)c2ccccc2-c2ccccc21 : reported selectivity ratio = ?
> 80

Entry CCCCN(CCCC)C(=O)C[N+](C)(C)CCCCCn1c(-c2ccc(N(C)C)cc2)nc2c3ccccc3c3ccccc3c21.[Br-] : reported selectivity ratio = ?
225

---

# Test system: Escherichia coli
# ASSAY_EXPLANATION: Antibacterial activity against Escherichia coli ATCC 25922 incubated for 16 to 18 hrs CLSI based by microbroth dilution assay
# Assay type: functional
# SETUP_CONDITIONS: time 16-18 hrs
REPORTED_METRIC: MIC

Entry CCN(CC)C(=O)C[N+](C)(C)CCCn1c(-c2ccc(N(C)C)cc2)nc2c3ccccc3c3ccccc3c21.[Br-] : reported MIC = ?
> 128 µg/mL

Entry CCCNC(=O)C[N+](C)(C)CCCn1c(-c2ccc(N(C)C)cc2)nc2c3ccccc3c3ccccc3c21.[Br-] : reported MIC = ?
> 128 µg/mL

Entry CN(C)c1ccc(-c2nc3c4ccccc4c4ccccc4c3n2CCC[N+](C)(C)CC(=O)N2CCSCC2)cc1.[Br-] : reported MIC = ?
> 128 µg/mL

---

# ASSAY_EXPLANATION: Hemolytic activity in sheep erythrocytes incubated for 1 hr by absorbance based assay
# Format: toxicity, cell-based, Ovis aries, Erythrocyte
Record form. Attribute: HC50 at 1 h. Fill in for each entry.

Entry CCCN(CCC)C(=O)C[N+](C)(C)CCCn1c(-c2ccc(N(C)C)cc2)nc2c3ccccc3c3ccccc3c21.[Br-] : reported HC50 at 1 h = ?
> 640 µg/mL

Entry CCNC(=O)C[N+](C)(C)CCCCCn1c(-c2ccc(N(C)C)cc2)nc2c3ccccc3c3ccccc3c21.[Br-] : reported HC50 at 1 h = ?
> 640 µg/mL

Entry CN(C)c1ccc(-c2nc3c4ccccc4c4ccccc4c3n2CCCC[N+](C)(C)CC(=O)N2CCSCC2)cc1.[Br-] : reported HC50 at 1 h = ?
> 640 µg/mL

Entry CN(C)c1ccc(-c2nc3c4ccccc4c4ccccc4c3n2CCCCC[N+](C)(C)CC(=O)N2CCSCC2)cc1.[Br-] : reported HC50 at 1 h = ?
> 640 µg/mL

Entry CCCNC(=O)C[N+](C)(C)CCCCCn1c(-c2ccc(N(C)C)cc2)nc2c3ccccc3c3ccccc3c21.[Br-] : reported HC50 at 1 h = ?
735 µg/mL

Entry CCNC(=O)C[N+](C)(C)CCCn1c(-c2ccc(N(C)C)cc2)nc2c3ccccc3c3ccccc3c21.[Br-] : reported HC50 at 1 h = ?
> 640 µg/mL

Entry CCN(CC)C(=O)C[N+](C)(C)CCCn1c(-c2ccc(N(C)C)cc2)nc2c3ccccc3c3ccccc3c21.[Br-] : reported HC50 at 1 h = ?
> 640 µg/mL

Entry CCCN(CCC)C(=O)C[N+](C)(C)CCCCn1c(-c2ccc(N(C)C)cc2)nc2c3ccccc3c3ccccc3c21.[Br-] : reported HC50 at 1 h = ?
213 µg/mL

Entry CCCNC(=O)C[N+](C)(C)CCCn1c(-c2ccc(N(C)C)cc2)nc2c3ccccc3c3ccccc3c21.[Br-] : reported HC50 at 1 h = ?
> 640 µg/mL

Entry CCCCCCNC(=O)C[N+](C)(C)CCCn1c(-c2ccc(N(C)C)cc2)nc2c3ccccc3c3ccccc3c21.[Br-] : reported HC50 at 1 h = ?
> 640 µg/mL

Entry CCCCCCNC(=O)C[N+](C)(C)CCCCCn1c(-c2ccc(N(C)C)cc2)nc2c3ccccc3c3ccccc3c21.[Br-] : reported HC50 at 1 h = ?
442 µg/mL

Entry CCCCN(CCCC)C(=O)C[N+](C)(C)CCCn1c(-c2ccc(N(C)C)cc2)nc2c3ccccc3c3ccccc3c21.[Br-] : reported HC50 at 1 h = ?
> 640 µg/mL

Entry CC(C)CN(CC(C)C)C(=O)C[N+](C)(C)CCCn1c(-c2ccc(N(C)C)cc2)nc2c3ccccc3c3ccccc3c21.[Br-] : reported HC50 at 1 h = ?
> 320 µg/mL

Entry CCCCN(CCCC)C(=O)C[N+](C)(C)CCCCCn1c(-c2ccc(N(C)C)cc2)nc2c3ccccc3c3ccccc3c21.[Br-] : reported HC50 at 1 h = ?
225 µg/mL

Entry CCNC(=O)C[N+](C)(C)CCCCn1c(-c2ccc(N(C)C)cc2)nc2c3ccccc3c3ccccc3c21.[Br-] : reported HC50 at 1 h = ?
> 640 µg/mL

Entry CC(C)CN(CC(C)C)C(=O)C[N+](C)(C)CCCCCn1c(-c2ccc(N(C)C)cc2)nc2c3ccccc3c3ccccc3c21.[Br-] : reported HC50 at 1 h = ?
247 µg/mL

Entry CC(C)CN(CC(C)C)C(=O)C[N+](C)(C)CCCCn1c(-c2ccc(N(C)C)cc2)nc2c3ccccc3c3ccccc3c21.[Br-] : reported HC50 at 1 h = ?
158 µg/mL

Entry CC(C)N(C(=O)C[N+](C)(C)CCCCn1c(-c2ccc(N(C)C)cc2)nc2c3ccccc3c3ccccc3c21)C(C)C.[Br-] : reported HC50 at 1 h = ?
> 640 µg/mL

Entry CC(C)N(C(=O)C[N+](C)(C)CCCn1c(-c2ccc(N(C)C)cc2)nc2c3ccccc3c3ccccc3c21)C(C)C.[Br-] : reported HC50 at 1 h = ?
68.5 µg/mL

Entry O=C1C(=O)c2ccccc2-c2ccccc21 : reported HC50 at 1 h = ?
> 320 µg/mL

These measurements were taken from ChEMBL document CHEMBL5512637.
